# measurement-target: melanocortin-5 receptor (human, UniProt P33032 1-325)
# Sequence (P33032 whole entry): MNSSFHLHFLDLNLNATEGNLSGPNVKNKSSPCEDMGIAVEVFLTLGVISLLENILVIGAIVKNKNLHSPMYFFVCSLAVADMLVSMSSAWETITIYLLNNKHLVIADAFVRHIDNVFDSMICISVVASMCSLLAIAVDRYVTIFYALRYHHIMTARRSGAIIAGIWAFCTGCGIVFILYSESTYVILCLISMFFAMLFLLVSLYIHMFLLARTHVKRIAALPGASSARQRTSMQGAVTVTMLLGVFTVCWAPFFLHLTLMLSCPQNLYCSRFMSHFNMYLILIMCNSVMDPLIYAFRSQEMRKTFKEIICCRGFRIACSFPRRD
# assay-notes: cell-based or functional assay
Bridge positions count the residues as written; N and C are the ends. Square brackets hold non-standard residues; d marks the D form. Pen = CC(C)(S)[C@H](N)C(=O)O; hCys = N[C@@H](CCS)C(=O)O
readout-kind: cAMP Assay (EC-50) (nM)
Express the result in nM but write the number alone.

Examples from the recorded data:
Task: Read the entry Ac-RC[dA]N[dF]RWC-NH2 (disulfide 2-8; SMILES CC(=O)N[C@@H](CCCNC(=N)N)C(=O)N[C@H]1CSSC[C@@H](C(N)=O)NC(=O)[C@H](Cc2c[nH]c3ccccc23)NC(=O)[C@H](CCCNC(=N)N)NC(=O)[C@@H](Cc2ccccc2)NC(=O)[C@H](CC(N)=O)NC(=O)[C@@H](C)NC1=O) [Ac-Arg-cyclo[Cys-D-Ala-Asn-D-Phe-Arg-Trp-Cys]-NH2] and write its reported cAMP Assay (EC-50).
Result: 1490

Task: Output measured cAMP Assay (EC-50) for this item: Ac-R[hCys][dA][dF]RW[Pen]-NH2 (disulfide 2-7; SMILES CC(=O)N[C@@H](CCCNC(=N)N)C(=O)N[C@H]1CCSSC(C)(C)[C@@H](C(N)=O)NC(=O)[C@H](Cc2c[nH]c3ccccc23)NC(=O)[C@H](CCCNC(=N)N)NC(=O)[C@@H](Cc2ccccc2)NC(=O)[C@@H](C)NC1=O) [Ac-Arg-cyclo[hCys-D-Ala-D-Phe-Arg-Trp-Pen]-NH2]
Result: 2180

Task: Answer with reported cAMP Assay (EC-50) of Ac-RC[dA]W[dF]RWC-NH2 (disulfide 2-8; SMILES CC(=O)N[C@@H](CCCNC(=N)N)C(=O)N[C@H]1CSSC[C@@H](C(N)=O)NC(=O)[C@H](Cc2c[nH]c3ccccc23)NC(=O)[C@H](CCCNC(=N)N)NC(=O)[C@@H](Cc2ccccc2)NC(=O)[C@H](Cc2c[nH]c3ccccc23)NC(=O)[C@@H](C)NC1=O) [Ac-Arg-cyclo[Cys-D-Ala-Trp-D-Phe-Arg-Trp-Cys]-NH2]
Result: 259

Task: State its cAMP Assay (EC-50): Ac-RC[dA]Q[dF]RWC-NH2 (disulfide 2-8; SMILES CC(=O)N[C@@H](CCCNC(=N)N)C(=O)N[C@H]1CSSC[C@@H](C(N)=O)NC(=O)[C@H](Cc2c[nH]c3ccccc23)NC(=O)[C@H](CCCNC(=N)N)NC(=O)[C@@H](Cc2ccccc2)NC(=O)[C@H](CCC(N)=O)NC(=O)[C@@H](C)NC1=O) [Ac-Arg-cyclo[Cys-D-Ala-Gln-D-Phe-Arg-Trp-Cys]-NH2]
Result: 255

Then there is this binder:
Task: Please give measured cAMP Assay (EC-50) of the following entry: Ac-RC[dI]H[dF]RWC-NH2 (disulfide 2-8) [Ac-Arg-cyclo[Cys-D-Ile-His-D-Phe-Arg-Trp-Cys]-NH2]
Result: 420

The reported measurements were obtained from patent US20210040155A1.
